Target: Factor X (FX), P00742
Sequence (P00742 whole entry, looked up): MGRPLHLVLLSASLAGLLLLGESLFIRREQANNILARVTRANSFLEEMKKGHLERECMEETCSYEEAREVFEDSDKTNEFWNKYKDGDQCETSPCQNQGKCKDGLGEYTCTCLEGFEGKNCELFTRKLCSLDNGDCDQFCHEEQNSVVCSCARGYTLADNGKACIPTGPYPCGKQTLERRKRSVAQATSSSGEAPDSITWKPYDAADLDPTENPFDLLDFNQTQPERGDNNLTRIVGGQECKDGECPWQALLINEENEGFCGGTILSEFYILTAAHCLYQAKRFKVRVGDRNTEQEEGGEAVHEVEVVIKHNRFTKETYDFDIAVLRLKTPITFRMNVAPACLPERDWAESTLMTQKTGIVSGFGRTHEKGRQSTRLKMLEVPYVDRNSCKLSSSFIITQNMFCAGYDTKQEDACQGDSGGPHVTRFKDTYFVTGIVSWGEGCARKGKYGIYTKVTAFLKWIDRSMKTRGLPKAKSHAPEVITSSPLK
endpoint: KM (µM)
Please state the figure in µM; there is no need to write the unit.

Please report KM for the following protein: FIXa-Y155F/R318Y/T343R/R403E/E410N (protein) chain 1: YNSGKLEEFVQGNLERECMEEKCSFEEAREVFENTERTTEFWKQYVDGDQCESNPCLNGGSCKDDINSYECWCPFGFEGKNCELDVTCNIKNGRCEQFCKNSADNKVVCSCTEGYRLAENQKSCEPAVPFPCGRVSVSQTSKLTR chain 2: VVGGEDAKPGQFPWQVVLNGKVDAFCGGSIVNEKWIVTAAHCVETGVKITVVAGEHNIEETEHTEQKRNVIRIIPHHNYNAAINKYNHDIALLELDEPLVLNSYVTPICIADKEYTNIFLKFGSGYVSGWGRVFHKGYSALVLQYLRVPLVDRATCLRSTKFRIYNNMFCAGFHEGGRDSCQGDSGGPHVTEVEGTSFLTGIISWGEECAMKGKYGIYTKVSEYVNWIKNKTKLT 0.034
